Measured herbicidal effect against ALOMY (Alopecurus myosuroides), listed per entry.
test system: Alopecurus myosuroides; experiment: Herbicidal post-emergence action; type: in vivo; settings: post-emergence method, 80 g/ha
READOUT TYPE: herbicidal effect against ALOMY (Alopecurus myosuroides) (%)

>>> assay_result("C=C1CC2C(=O)C(c3c(C)cc(C)cc3OC)=C(OC(=O)C(C)C)C2C1 (stereo not shown)")
30
>>> assay_result("CCOC(=O)OC1=C(c2c(CC)cc(C)cc2CC)C(=O)[C@@H]2CC3(C[C@H]12)OCCCCO3 (relative stereo)")
90
>>> assay_result("CCc1cc(C)cc(C)c1C1=C(OC(=O)C(C)C)C2CC3(CC2C1=O)OCC=CCO3 (stereo not shown)")
90
>>> assay_result("CCc1cc(C)cc(CC)c1C1=C(O)[C@H]2CC3(C[C@H]2C1=O)OCC(C)CO3 (relative stereo)")
100
